These entries and their values trace back to patent US20260108546A1.

The reader will find reported Emax values listed item by item below.
- assay system: hGIP-R (Homo sapiens, UniProt P48546)
- Construct: expressed in transfected cells; host or cells: HEK-293 clonal cell lines
- Sequence (P48546 22-466): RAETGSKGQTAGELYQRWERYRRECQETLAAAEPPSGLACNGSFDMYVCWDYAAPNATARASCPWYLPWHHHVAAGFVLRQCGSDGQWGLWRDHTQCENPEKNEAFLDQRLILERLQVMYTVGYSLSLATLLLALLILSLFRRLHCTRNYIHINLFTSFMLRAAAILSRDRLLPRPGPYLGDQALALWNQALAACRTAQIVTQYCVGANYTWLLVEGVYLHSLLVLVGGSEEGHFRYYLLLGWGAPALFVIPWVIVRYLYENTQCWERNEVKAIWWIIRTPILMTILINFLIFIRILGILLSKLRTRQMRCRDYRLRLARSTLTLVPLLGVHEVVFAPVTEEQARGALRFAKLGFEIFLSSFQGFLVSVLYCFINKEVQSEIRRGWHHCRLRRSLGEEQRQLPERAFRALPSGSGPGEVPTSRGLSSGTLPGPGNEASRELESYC
- assay explanation: Functional hGIP-R Assay (cAMP formation, HTRF)
- Format: cell-based
- experimental parameters: cAMP efficacy; percent of maximal response to GIP(1-42)OH; 37° C., 0.1% bovine casein; arithmetic mean ± SEM

compound	assay system	Emax
Cn1cc(-c2cc(C(F)(F)F)nn2CC(C)(C)NC(=O)[C@@H](Cc2cnn(C(F)F)c2)NC(=O)[C@H]2C[C@@H]2c2ccc3c(Cl)nn(C)c3c2)cc(F)c1=O	hGIP-R (Homo sapiens, UniProt P48546)	4.64%
CCc1cn2cc(-c3ccc([C@H]4C[C@@H]4C(=O)N[C@H](Cc4cnc5ncccn45)C(=O)NC(C)(C)Cn4cc(C(F)(F)F)cn4)cc3)cnc2n1	hGIP-R (Homo sapiens, UniProt P48546)	106%
Cc1cn2cc(-c3ccc([C@H]4C[C@@]45CCN([C@H](Cc4cnn(C(F)F)c4)C(=O)NC(C)(C)Cn4nc(C(F)(F)F)cc4-c4ccc(=O)n(COP(=O)(O)O)n4)C5=O)c(F)c3)cnc2n1	hGIP-R (Homo sapiens, UniProt P48546)	106%
Cc1cn2cc(-c3ccc([C@H]4C[C@@]45CCN([C@H](Cc4cnn(C(F)F)c4)C(=O)NC(C)(C)Cc4nc(C(F)(F)F)cn4C4CCN(C)C4=O)C5=O)c(Cl)c3)cnc2n1 (single isomer, unassigned; isomer 1)	hGIP-R (Homo sapiens, UniProt P48546)	115%
Cn1cc2cc(-c3ccc([C@H]4C[C@@]45CCN([C@H](Cc4cnn(C(F)F)c4)C(=O)NC(C)(C)Cn4nc(C(F)(F)F)cc4P(C)(C)=O)C5=O)c(Cl)c3)cnc2n1	hGIP-R (Homo sapiens, UniProt P48546)	109%
